# credit: paper PMC12415521

- experimental target: T1, CD2 domain of cpSRP43
- T1 chain: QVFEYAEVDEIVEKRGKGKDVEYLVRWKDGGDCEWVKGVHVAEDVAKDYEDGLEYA
- experimental details: ITC
measurement type: Kd (µM)
Numbers only; they are read as µM.

Measured Kd of APPGTARRKRKADS [54-peptide] : 1.27
